substrate: S=C=NCCc1ccccc1; experiment: purified protein; assay type: biochemical, Synechocystis sp. PCC 6803; details: fixed saturating GSH, 100 mM phosphate pH 6.5, 25 °C
Measured Quantity: kcat (s⁻¹)

1. SynGSTC1 (Sll0067) (Synechocystis sp. PCC 6803 substr. Kazusa; R11A) (protein, Ni-NTA and size exclusion; about 180 residues; two-fold dimer in crystal) MIKLYGAPQSAASIIQWYLEELSLPYEFVNVNLKEGEHRQAPYLAINPFGKVPAIADGNFHLWESGAILLYLAEKASTIPADAQARALVNQWILFANSTLANGLFIEAVREKEMPRLLQSLEKILGRSPFILGEKFSVVDVAVGSILAYVPIMLKLNFDDYPAVAAYVQGLVQRPAFQASIGAR ... 0.17
2. SynGSTC1 (Sll0067) (Synechocystis sp. PCC 6803 substr. Kazusa; S10C) (protein, Ni-NTA and size exclusion; about 180 residues; two-fold dimer in crystal) MIKLYGAPQCRASIIQWYLEELSLPYEFVNVNLKEGEHRQAPYLAINPFGKVPAIADGNFHLWESGAILLYLAEKASTIPADAQARALVNQWILFANSTLANGLFIEAVREKEMPRLLQSLEKILGRSPFILGEKFSVVDVAVGSILAYVPIMLKLNFDDYPAVAAYVQGLVQRPAFQASIGAR ... 1.19
3. SynGSTC1 (Sll0067) (Synechocystis sp. PCC 6803 substr. Kazusa; S10T) (protein, Ni-NTA and size exclusion; about 180 residues; two-fold dimer in crystal) MIKLYGAPQTRASIIQWYLEELSLPYEFVNVNLKEGEHRQAPYLAINPFGKVPAIADGNFHLWESGAILLYLAEKASTIPADAQARALVNQWILFANSTLANGLFIEAVREKEMPRLLQSLEKILGRSPFILGEKFSVVDVAVGSILAYVPIMLKLNFDDYPAVAAYVQGLVQRPAFQASIGAR ... 7.2
4. SynGSTC1 (Sll0067) (Synechocystis sp. PCC 6803 substr. Kazusa) (protein, Ni-NTA and size exclusion; about 180 residues; two-fold dimer in crystal) MIKLYGAPQSRASIIQWYLEELSLPYEFVNVNLKEGEHRQAPYLAINPFGKVPAIADGNFHLWESGAILLYLAEKASTIPADAQARALVNQWILFANSTLANGLFIEAVREKEMPRLLQSLEKILGRSPFILGEKFSVVDVAVGSILAYVPIMLKLNFDDYPAVAAYVQGLVQRPAFQASIGAR ... 12.6
5. SynGSTC1 (Sll0067) (Synechocystis sp. PCC 6803 substr. Kazusa; S10A) (protein, Ni-NTA and size exclusion; about 180 residues; two-fold dimer in crystal) MIKLYGAPQARASIIQWYLEELSLPYEFVNVNLKEGEHRQAPYLAINPFGKVPAIADGNFHLWESGAILLYLAEKASTIPADAQARALVNQWILFANSTLANGLFIEAVREKEMPRLLQSLEKILGRSPFILGEKFSVVDVAVGSILAYVPIMLKLNFDDYPAVAAYVQGLVQRPAFQASIGAR ... 2.6
